Values compiled from patent US4345938A.

system: Cyperus serotinus; experiment: Field transplant rice test, applied 9 DAT, CS; format: in vivo; settings: Cyperus serotinus, 216 h, 1.5 Kg/Ha, 5 WAT, read-out: Percent Inhibition, CS
Reported values of inhibition at 1500 g/ha for individual entries
readout kind: inhibition at 1500 g/ha (%)

CCCCOCN(C(=O)CCl)c1c(CC)cccc1CC 100
CCCCOCCN(C(=O)CCl)c1c(CC)cccc1CC 85
CCCCOCN(C(=O)CCl)c1c(C)cccc1C(C)(C)C 87
CCCOCCN(C(=O)CCl)c1c(CC)cccc1CC 77
CCCCOc1cccc(CC)c1N(C)C(=O)CCl 100

====

tested on: Echinochloa crus-galli; test: Field transplant rice test, applied 9 DAT, EC; type: in vivo; conditions: Echinochloa crus-galli, 216 h, 0.75 Kg/Ha, 7 WAT, read-out: Percent Inhibition, EC
readout kind: inhibition at 750 g/ha (%)

CCCCOCN(C(=O)CCl)c1c(C)cccc1C(C)(C)C 97
CCCCOc1cccc(CC)c1N(C)C(=O)CCl 100
CCCCOCCN(C(=O)CCl)c1c(CC)cccc1CC 50
CCCCOCN(C(=O)CCl)c1c(CC)cccc1CC 70
CCCOCCN(C(=O)CCl)c1c(CC)cccc1CC 88

====

system: Eleocharis kuroguwai; assay: Field transplant rice test, applied 9 DAT, EK; format: in vivo; details: Eleocharis kuroguwai, 216 h, 0.375 Kg/Ha, 5 WAT, read-out: Percent Inhibition, EK
Reported values of inhibition at 375 g/ha for individual entries
readout kind: inhibition at 375 g/ha (%)

CCCCOCN(C(=O)CCl)c1c(CC)cccc1CC 22
CCCCOc1cccc(CC)c1N(C)C(=O)CCl 52
CCCCOCCN(C(=O)CCl)c1c(CC)cccc1CC 3
CCCCOCN(C(=O)CCl)c1c(C)cccc1C(C)(C)C 23
CCCOCCN(C(=O)CCl)c1c(CC)cccc1CC 23

====

test system: Echinochloa crus-galli; experiment: Field transplant rice test, applied 0 DAT, EC; assay type: in vivo; details: 0 h, 0.375 Kg/Ha, 6 WAT, read-out: Percent Inhibition, EC
Reported values of inhibition at 375 g/ha for individual entries

compound	system name	inhibition at 375 g/ha / %
CCCCOCN(C(=O)CCl)c1c(CC)cccc1CC [Compound A]	Echinochloa crus-galli	60
CCCCOCN(C(=O)CCl)c1c(C)cccc1C(C)(C)C [Compound C]	Echinochloa crus-galli	98
CCCCOCCN(C(=O)CCl)c1c(CC)cccc1CC [Compound B]	Echinochloa crus-galli	37
CCCCOc1cccc(CC)c1N(C)C(=O)CCl [Example 1]	Echinochloa crus-galli	100
CCCOCCN(C(=O)CCl)c1c(CC)cccc1CC [Compound D]	Echinochloa crus-galli	83

====

system: Monochoria vaginalis; experiment: Field transplant rice test, applied 9 DAT, MV; assay type: in vivo; details: Pontederia vaginalis, 216 h, 3.0 Kg/Ha, 7 WAT, read-out: Percent Inhibition, MV

compound	unit string	inhibition at 3000 g/ha
CCCCOCN(C(=O)CCl)c1c(C)cccc1C(C)(C)C [Compound C]	%	100
CCCOCCN(C(=O)CCl)c1c(CC)cccc1CC [Compound D]	%	100
CCCCOc1cccc(CC)c1N(C)C(=O)CCl [Example 1]	%	100
CCCCOCCN(C(=O)CCl)c1c(CC)cccc1CC [Compound B]	%	97
CCCCOCN(C(=O)CCl)c1c(CC)cccc1CC [Compound A]	%	100

====

system: Sagittaria trifolia; test: Field transplant rice test, applied 0 DAT, ST; type: in vivo; conditions: 0 h, 0.375 Kg/Ha, 4 WAT, read-out: Percent Inhibition, ST
readout kind: inhibition at 375 g/ha (%)

compound	system name	unit string	assay result
CCCCOCN(C(=O)CCl)c1c(C)cccc1C(C)(C)C [Compound C]	Sagittaria trifolia	%	5
CCCCOCCN(C(=O)CCl)c1c(CC)cccc1CC [Compound B]	Sagittaria trifolia	%	10
CCCCOc1cccc(CC)c1N(C)C(=O)CCl [Example 1]	Sagittaria trifolia	%	8
CCCCOCN(C(=O)CCl)c1c(CC)cccc1CC [Compound A]	Sagittaria trifolia	%	22
CCCOCCN(C(=O)CCl)c1c(CC)cccc1CC [Compound D]	Sagittaria trifolia	%	2

====

system: Eleocharis kuroguwai; test: Field transplant rice test, applied 0 DAT, EK; format: in vivo; settings: 0 h, 1.5 Kg/Ha, 6 WAT, read-out: Percent Inhibition, EK
readout kind: inhibition at 1500 g/ha (%)

CCCCOCCN(C(=O)CCl)c1c(CC)cccc1CC 17
CCCCOc1cccc(CC)c1N(C)C(=O)CCl 37
CCCCOCN(C(=O)CCl)c1c(CC)cccc1CC 28
CCCCOCN(C(=O)CCl)c1c(C)cccc1C(C)(C)C 67
CCCOCCN(C(=O)CCl)c1c(CC)cccc1CC 47

====

Test: Fish toxicity (carp), Japanese protocol
Format: in vivo
Settings: in vivo; carp (7 cm), 96 Hours; read-out: TLM, Median Tolerance Limit (LC50)
Procedure: In view of the importance of fish toxicity considerations, tests were conducted with the compound of Example 1 on carp (7 cm) according to Japanese protocol; test data are shown in Table VII. Since U.S. Pat. No. 3,955,959 mentioned above discloses carp toxicity data for butachlor (Compound A) and terbuchlor (Compound C), also obtained according to Japanese protocol, the toxicity data in said U.S. Pat. No. 3,955,959 for these compounds is also presented in Table VII for comparative purposes.
readout kind: LC50 at 96 h (µg/mL)

CCCCOc1cccc(CC)c1N(C)C(=O)CCl 2.4

====

system: Eleocharis kuroguwai; assay: Field transplant rice test, applied 0 DAT, EK; assay type: in vivo; details: 0 h, 0.375 Kg/Ha, 4 WAT, read-out: Percent Inhibition, EK
Reported values of inhibition at 375 g/ha for individual entries
readout kind: inhibition at 375 g/ha (%)

CCCCOCN(C(=O)CCl)c1c(CC)cccc1CC 33
CCCCOc1cccc(CC)c1N(C)C(=O)CCl 40
CCCCOCCN(C(=O)CCl)c1c(CC)cccc1CC 37
CCCCOCN(C(=O)CCl)c1c(C)cccc1C(C)(C)C 52
CCCOCCN(C(=O)CCl)c1c(CC)cccc1CC 20

====

tested on: Echinochloa crus-galli; test: Field transplant rice test, applied 9 DAT, EC; format: in vivo; conditions: Echinochloa crus-galli, 216 h, 3.0 Kg/Ha, 5 WAT, read-out: Percent Inhibition, EC
readout kind: inhibition at 3000 g/ha (%)

CCCOCCN(C(=O)CCl)c1c(CC)cccc1CC 100
CCCCOCCN(C(=O)CCl)c1c(CC)cccc1CC 95
CCCCOc1cccc(CC)c1N(C)C(=O)CCl 100
CCCCOCN(C(=O)CCl)c1c(CC)cccc1CC 93
CCCCOCN(C(=O)CCl)c1c(C)cccc1C(C)(C)C 100

====

Reported values of inhibition at 1500 g/ha for individual entries
test system: Monochoria vaginalis; assay: Field transplant rice test, applied 0 DAT, MV; format: in vivo; settings: Pontederia vaginalis, 0 h, 1.5 Kg/Ha, 6 WAT, read-out: Percent Inhibition, MV
readout kind: inhibition at 1500 g/ha (%)

CCCCOCCN(C(=O)CCl)c1c(CC)cccc1CC 100
CCCCOc1cccc(CC)c1N(C)C(=O)CCl 100
CCCOCCN(C(=O)CCl)c1c(CC)cccc1CC 100
CCCCOCN(C(=O)CCl)c1c(CC)cccc1CC 100
CCCCOCN(C(=O)CCl)c1c(C)cccc1C(C)(C)C 100

====

Reported values of inhibition at 750 g/ha for individual entries
system: Cyperus serotinus; experiment: Field transplant rice test, applied 9 DAT, CS; format: in vivo; settings: Cyperus serotinus, 216 h, 0.75 Kg/Ha, 7 WAT, read-out: Percent Inhibition, CS
readout kind: inhibition at 750 g/ha (%)

compound	readout kind	unit string	assay result
CCCCOc1cccc(CC)c1N(C)C(=O)CCl [Example 1]	inhibition at 750 g/ha	%	95
CCCCOCN(C(=O)CCl)c1c(CC)cccc1CC [Compound A]	inhibition at 750 g/ha	%	38
CCCCOCCN(C(=O)CCl)c1c(CC)cccc1CC [Compound B]	inhibition at 750 g/ha	%	67
CCCOCCN(C(=O)CCl)c1c(CC)cccc1CC [Compound D]	inhibition at 750 g/ha	%	33
CCCCOCN(C(=O)CCl)c1c(C)cccc1C(C)(C)C [Compound C]	inhibition at 750 g/ha	%	82

====

system: Sagittaria trifolia; experiment: Field transplant rice test, applied 0 DAT, ST; format: in vivo; conditions: 0 h, 3.0 Kg/Ha, 2 WAT, read-out: Percent Inhibition, ST
Reported values of inhibition at 3000 g/ha for individual entries

molecule	inhibition at 3000 g/ha, %
CCCCOc1cccc(CC)c1N(C)C(=O)CCl [Example 1]	47
CCCCOCN(C(=O)CCl)c1c(CC)cccc1CC [Compound A]	42
CCCCOCCN(C(=O)CCl)c1c(CC)cccc1CC [Compound B]	32
CCCOCCN(C(=O)CCl)c1c(CC)cccc1CC [Compound D]	22
CCCCOCN(C(=O)CCl)c1c(C)cccc1C(C)(C)C [Compound C]	53
